# System: NO production in RAW cells
# test name: Inhibition of NO production in RAW cells stimulated with interferon-γ
# Assay type: cell-based, mouse
# test context: Mus musculus; Table 5; C-8a functionalized TBE-9 analogs; stimulated with interferon-γ; read-out: IC50 (nM), NO production in RAW cells
quantity measured: IC50

>>> observed_measurement("CC1(C)C(=O)C(C#N)=CC2(C)C3=CC(=O)C(C#N)=CC3(C#CC#N)CCC12 (stereo not drawn) [TBE-38]")
"4 nM"

QUERY: Any idea what its IC50 is? The molecule is C#CC12C=C(C#N)C(=O)C=C1C1(C)C=C(C#N)C(=O)C(C)(C)C1CC2 (racemic) [TBE-31]
RESULT: 1 nM

QUERY: Given the entry C#CC#CC12C=C(C#N)C(=O)C=C1C1(C)C=C(C#N)C(=O)C(C)(C)C1CC2 (stereo not drawn) [TBE-39] , report its measured IC50.
RESULT: 3 nM

QUERY: # get_value(readout='IC50', item= CCC#CC12C=C(C#N)C(=O)C=C1C1(C)C=C(C#N)C(=O)C(C)(C)C1CC2 (stereo not drawn) [TBE-36] )
RESULT: 20 nM

QUERY: # input molecule: CC1(C)CC[C@]2(C#N)CC[C@]3(C)[C@H](C(=O)C=C4[C@@]5(C)C=C(C#N)C(=O)C(C)(C)[C@@H]5CC[C@]43C)[C@@H]2C1 [TP-225, reference compound] ; wanted: its IC50
RESULT: 1 nM

QUERY: I am curious: what IC50 value has been reported for CC#CC12C=C(C#N)C(=O)C=C1C1(C)C=C(C#N)C(=O)C(C)(C)C1CC2 (stereo not drawn) [TBE-35] ?
RESULT: 5 nM
